Observed pIC50 values for GSK3α (Homo sapiens (Human)) are listed in what follows.
Scale: negative log10 of molar concentration, which is what pIC50 denotes.

                              record_smiles                  study_system  assay_metric  recorded_result
0  COCCOCCOCCOc1cc(Nc2nccc(Oc3ccc(NC(=O)Nc4cc(C(C)(C)C)nn4-c4ccc(C)cc4)c4ccccc34)n2)cc(OC)c1  GSK3α (Homo sapiens (Human))         pIC50             5.20
1  COCCOCCOCCOc1cccc(Nc2nccc(Oc3ccc(NC(=O)Nc4cc(C(C)C)nn4-c4ccc(C)cc4)c4ccccc34)n2)c1  GSK3α (Homo sapiens (Human))         pIC50             5.43
2  COc1cc(Nc2nccc(Oc3ccc(NC(=O)Nc4cc(C(C)C)nn4-c4ccc(C)cc4)c4ccccc34)n2)cc(S(=O)(=O)C2CC2)c1  GSK3α (Homo sapiens (Human))         pIC50             5.54

Q. Form field: pIC50 recorded for COc1cc(Nc2nccc(Oc3ccc(NC(=O)Nc4cc(C(C)(C)C)nn4-c4ccc(C)cc4)c4ccccc34)n2)cc(SCCCN2CCOCC2)c1 with GSK3α (Homo sapiens (Human)) (enter value)
A. 5.71

Q. GSK3α (Homo sapiens (Human)) / pIC50 / COc1cc(Nc2nccc(Oc3ccc(NC(=O)Nc4cc(C(C)(C)C)nn4-c4ccc(C)cc4)c4ccccc34)n2)cc(OCCN2CCOCC2)c1 : value?
A. 5.83

Q. pIC50 of COc1cc(Nc2nccc(Oc3ccc(NC(=O)Nc4cc(C(C)(C)C)nn4-c4ccc(C)cc4)c4ccccc34)n2)cc(OCCOCCOCCN(C)C)c1 on GSK3α (Homo sapiens (Human))?
A. 5.71
